- Tested on: HEPG2
- Assay Remarks: Euclidean distance of Cell Painting phenotypic profile (signed KS, 77 features) to DMSO centroid (dimensionless distance); higher = stronger phenotypic change vs DMSO (phenoactivity)
- Test Context: 48 h; 5 or 10 uM (library dependent)
Examples of compounds with documented Euclidean distance follow.

Compound	Test Target	Euclidean distance
Cc1ccccc1-n1c(Cn2ncc3c(N)ncnc32)nc2cccc(C)c2c1=O	HEPG2	2.23
CN1C(=O)CCS(=O)(=O)C1c1ccc(Cl)cc1 (stereo not drawn) [Chlormezanone]	HEPG2	0.59
Cc1sc2c(c1C)C(c1ccc(Cl)cc1)=N[C@@H](CC(=O)OC(C)(C)C)c1nnc(C)n1-2	HEPG2	1.96
O=c1[nH]c2ccccc2n1CCCN1CCC(n2c(=O)[nH]c3cc(Cl)ccc32)CC1 [Domperidone]	HEPG2	0.776
C/C(=C\c1csc(C)n1)[C@@H]1C[C@@H]2O[C@@H]2CCC[C@H](C)[C@H](O)[C@@H](C)C(=O)C(C)(C)[C@@H](O)CC(=O)O1 [Epothilone A]	HEPG2	2.34
C=C[C@H]1CN2CC[C@H]1C[C@H]2[C@H](O)c1ccnc2ccccc12 [Cinchonidine]	HEPG2	0.521
CC(C)=CCOc1c2occc2cc2ccc(=O)oc12 [Imperatorin]	HEPG2	0.503
C[C@@H]1CC[C@H]2[C@@H](C)C(=O)O[C@@H]3O[C@@]4(C)CC[C@@H]1[C@]32OO4 [Artemisinin]	HEPG2	1.24
